Assay: DPPH radical scavenging ability
Settings: at 1600, 800, 400, and 200 µM; DPPH 100 μM, 30 min, 25 °C
Assay Metric: percentages of DPPH scavenging ability

O=C(/C=C/C=C/c1ccccc1)c1ccc(O)cc1 [Compound 4]    below 8%
O=c1c(O)c(-c2ccc(O)c(O)c2)oc2cc(O)cc(O)c12 [Quercetin, reference compound]    ≥ 95%
O=C(O)c1cc(O)c(O)c(O)c1 [gallic acid, reference compound]    ≥ 95%
O=C(/C=C/C=C/c1ccccc1)c1cccc(O)c1 [Compound 3]    below 8%

---

Measurement record for Escherichia coli (ATCC 10536); quantity recorded: MIC.

Query: Which measured MIC value corresponds to O=C(/C=C/C=C/c1ccccc1)c1ccc([N+](=O)[O-])cc1 ?
Reply: > 500 µM

Query: Follow-up item: O=C(/C=C/C=C/c1ccccc1)c1ccc(Cl)cc1
Reply: > 500 µM

Query: Follow-up item: COc1cccc(C(=O)/C=C/C=C/c2ccccc2)c1
Reply: > 500 µM

---

chromatographic logP values, listed per item
Assay: Partition coefficient log Po/w by HPLC-PDA (OECD method)
Settings: n-octanol/water (from HPLC retention on a C-18 column)
// return just the number, without any unit appended

O=C(/C=C/C=C/c1ccccc1)c1cccc(C(F)(F)F)c1    3.7
O=C(/C=C/C=C/c1ccccc1)c1cccc(O)c1    2.7
Cc1ccc(C(=O)/C=C/C=C/c2ccccc2)cc1    3.5
O=C(/C=C/C=C/c1ccccc1)c1ccc(F)cc1    3.3
O=C(/C=C/C=C/c1ccccc1)c1ccc([N+](=O)[O-])cc1    3.2

// next item, chromatographic logP requested
Query: Which measured chromatographic logP value corresponds to O=C(/C=C/C=C/c1ccccc1)c1ccccc1 ?
Reply: 3.2
